meta.source: ChEMBL document CHEMBL4265950

// reported inhibition per item
target: cGMP-specific 3',5'-cyclic phosphodiesterase (Homo sapiens); assay: Inhibition of full length recombinant human N-terminal GST-tagged PDE5A1 expressed in baculovirus infected sf9 cells at 100 nM using FAM-cyclic-3',5-GMP as substrate after 1 hr by fluorescence polarization assay relative to control
Value type: inhibition (%)

CCc1ccc(C(=O)c2[nH]c3ccccc3c2CCNc2ncc(-c3ccc(OC)c(OC)c3)cn2)s1
24.7
Cc1ccc([C@H]2c3[nH]c4ccccc4c3C[C@@H]3C(=O)N(C)CC(=O)N23)s1
40.2
CCc1ccc([C@@H]2c3[nH]c4ccccc4c3C[C@@H]3C(=O)N(CC)C(=O)N23)s1
91.4
CCN1C(=O)[C@@H]2Cc3c([nH]c4ccccc34)[C@@H](c3sccc3C)N2C1=O
76.1
Cc1ccsc1[C@H]1c2[nH]c3ccccc3c2C[C@@H]2C(=O)N(C)CC(=O)N12
57.4

----------
// reported pIC50 per item
molecular target: cGMP-specific 3',5'-cyclic phosphodiesterase (Homo sapiens); assay: Inhibition of full length recombinant human N-terminal GST-tagged PDE5A1 expressed in baculovirus infected sf9 cells using FAM-cyclic-3',5-GMP as substrate after 1 hr by fluorescence polarization assay
pIC50: −log10 of the molar value.
Value type: pIC50

Cc1ccsc1[C@@H]1c2[nH]c3ccccc3c2C[C@@H]2C(=O)N(C)CC(=O)N12
7.30
CCc1ccc([C@@H]2c3[nH]c4ccccc4c3C[C@H]3C(=O)N(C)CC(=O)N23)s1
7.21
CCc1ccc([C@H]2c3[nH]c4ccccc4c3C[C@H]3C(=O)N(C)CC(=O)N23)s1
7.70
CCc1ccc([C@@H]2c3[nH]c4ccccc4c3C[C@@H]3C(=O)N(CC)C(=O)N23)s1
8.15
CN1CC(=O)N2[C@H](c3ccc(Br)s3)c3[nH]c4ccccc4c3C[C@@H]2C1=O
8.14
CCc1ccc(C2c3[nH]c4ccccc4c3C(=O)CN2c2ncc(-c3ccc(OC)c(OC)c3)cn2)s1 (stereo not drawn)
7.40
CCc1ccc(C2c3[nH]c4ccccc4c3CCN2c2ncc(-c3ccc(OC)c(OC)c3)cn2)o1 (stereo not drawn)
6.75
CN1CC(=O)N2[C@H](c3sccc3Br)c3[nH]c4ccccc4c3C[C@@H]2C1=O
7.10
CCc1ccc([C@H]2c3[nH]c4ccccc4c3C[C@@H]3C(=O)N(CC)C(=O)N23)s1
6.81
CCc1ccc([C@H]2c3[nH]c4ccccc4c3C[C@@H]3C(=O)N(CC)C(=O)N23)o1
7.56
CCc1ccc([C@H]2c3[nH]c4ccccc4c3C[C@H]3C(=O)N(C)CC(=O)N23)o1
7.25
CCCCN1C(=O)[C@H]2Cc3c([nH]c4ccccc34)[C@@H](c3ccc(CC)s3)N2C1=O
7.44
CCc1ccc([C@@H]2c3[nH]c4ccccc4c3C[C@@H]3C(=O)N(C)CC(=O)N23)s1
8.41
CCN1C(=O)[C@@H]2Cc3c([nH]c4ccccc34)[C@@H](c3sccc3C)N2C1=O
7.67
CCCCN1C(=O)[C@@H]2Cc3c([nH]c4ccccc34)[C@@H](c3ccc(CC)s3)N2C1=O
7.52
CCc1ccc(C2c3[nH]c4ccccc4c3CCN2C(=O)/C=C/c2ccc(C(=O)O)cc2)s1 (stereo not drawn)
6.63
CCNC(=O)c1cc2c([nH]c3ccccc32)c(-c2ccc(CC)s2)n1
6.64
Cc1ccsc1[C@H]1c2[nH]c3ccccc3c2C[C@@H]2C(=O)N(C)CC(=O)N12
7.01
